Value source: ChEMBL document CHEMBL1155476

Experiment: Solubility at pH 4
Type: physicochemical
Settings: buffer
REPORTED ENDPOINT: solubility (µM)
Answers are plain numbers, in µM.

In: Item under review: O=C(c1ccc(F)cc1)C1CCN(CC(O)COc2cccc3[nH]c4ccccc4c23)CC1 (stereo unspecified) . Reported solubility?
Out: 180

###

Molecular target: Beta-3 adrenergic receptor (Homo sapiens, UniProt P13945)
Sequence (P13945 whole entry): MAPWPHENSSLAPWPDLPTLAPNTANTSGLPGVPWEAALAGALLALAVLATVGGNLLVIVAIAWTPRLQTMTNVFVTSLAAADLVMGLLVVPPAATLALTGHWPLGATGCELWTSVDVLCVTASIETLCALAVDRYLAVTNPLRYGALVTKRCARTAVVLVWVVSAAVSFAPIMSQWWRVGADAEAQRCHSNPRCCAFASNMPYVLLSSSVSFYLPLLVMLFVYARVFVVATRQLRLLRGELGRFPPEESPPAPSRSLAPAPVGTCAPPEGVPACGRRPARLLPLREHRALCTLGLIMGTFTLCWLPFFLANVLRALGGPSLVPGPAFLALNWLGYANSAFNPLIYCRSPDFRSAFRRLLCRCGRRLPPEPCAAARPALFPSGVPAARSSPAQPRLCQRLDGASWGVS
Assay: Antagonist activity at human adrenergic beta3 receptor expressed in CHOK1 cells assessed as inhibition of cAMP accumulation by HTRF assay
REPORTED ENDPOINT: IC50 (µM)
One number for each entry, in µM.

In: Item under review: Cc1ccc(C(C)C)c(OCC(O)CN2CCC(CN3C(=O)c4cccc5cccc(c45)C3=O)CC2)c1 (stereo unspecified) . Reported IC50?
Out: 1.47

###

The following compounds have recorded Ki on Beta-3 adrenergic receptor (Homo sapiens, UniProt P13945).
Numbers only, in µM.

Worked cases, Ki given:
In: # query: Ki | item OC(COc1cccc2[nH]c3ccccc3c12)CN1CCC(Cc2ccccc2)CC1 (stereo not drawn) | system: Beta-3 adrenergic receptor (Homo sapiens, UniProt P13945)
Out: 0.23

In: # query: Ki | item COc1ccc(CC2CCN(CC(O)COc3cccc4[nH]c5ccccc5c34)CC2)cc1 (stereo not drawn) | system: Beta-3 adrenergic receptor (Homo sapiens, UniProt P13945)
Out: 0.455

In: # query: Ki | item CC(C)c1ccccc1OCC(O)CN1CCC(CN2C(=O)CCCC2=O)CC1 (stereo not drawn) | system: Beta-3 adrenergic receptor (Homo sapiens, UniProt P13945)
Out: 2.9

For every record below, what is its Ki?
1. C=CCc1ccccc1OCC(O)CN1CCN(CCN2C(=O)c3cccc4cccc(c34)C2=O)CC1 (stereo not drawn)
2. CC(C)c1ccccc1OCC(O)CN1CCC(N2C(=O)c3cccc4cccc(c34)C2=O)CC1 (stereo not drawn)
3. C=CCc1ccccc1OCC(O)CN1CCC(CN2C(=O)c3ccccc3C2=O)CC1 (stereo not drawn)
4. O=C1c2cccc3cccc(c23)C(=O)N1CC1CCN(CC(O)COc2cccc3[nH]ccc23)CC1 (stereo not drawn)

Out:
3.1
3.82
3.4
1

###

Biological target: Beta-1 adrenergic receptor (Homo sapiens, UniProt P08588)
Sequence (P08588 whole entry): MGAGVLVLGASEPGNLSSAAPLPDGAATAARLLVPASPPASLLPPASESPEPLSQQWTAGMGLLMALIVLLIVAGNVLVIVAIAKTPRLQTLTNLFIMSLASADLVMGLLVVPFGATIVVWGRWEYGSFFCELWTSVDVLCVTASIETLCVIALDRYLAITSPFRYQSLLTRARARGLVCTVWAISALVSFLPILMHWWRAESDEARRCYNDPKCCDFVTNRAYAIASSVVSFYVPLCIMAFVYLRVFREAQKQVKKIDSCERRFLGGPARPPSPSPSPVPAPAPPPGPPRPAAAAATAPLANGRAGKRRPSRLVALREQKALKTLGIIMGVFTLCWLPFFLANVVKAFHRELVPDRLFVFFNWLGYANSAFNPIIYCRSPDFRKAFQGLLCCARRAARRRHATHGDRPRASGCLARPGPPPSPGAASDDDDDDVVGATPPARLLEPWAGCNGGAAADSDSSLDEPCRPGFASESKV
Experiment: Displacement of [125I]cyanopindolol from human adrenergic beta-1 receptor expressed in CHOK1 cells
Assay type: cell-based, CHO-K1
Conditions: read-out: Ki
REPORTED ENDPOINT: pKi
Answers are plain numbers, as −log10 of the molar value.

In: Item under review: CC(C)c1ccccc1OCC(O)CN1CCOCC1 (stereo not drawn) . Reported pKi?
Out: 7.92

For every record below, what is its pKi?
1. O=C1c2cccc3cc(O)cc(c23)C(=O)N1CC1CCN(CC(O)COc2cccc3[nH]c4ccccc4c23)CC1 (stereo not drawn)
2. O=C(c1ccccc1)C1CCN(CC(O)COc2cccc3[nH]c4ccccc4c23)CC1 (stereo not drawn)
3. C=CCc1ccccc1OCC(O)CN1CCC(CN2C(=O)c3cccc4cccc(c34)C2=O)CC1 (stereo not drawn)

Out:
[6.60, 7.80, 7.10]

For every record below, what is its pKi?
1. C=CCc1ccccc1OCC(O)CN1CCN(CCN2C(=O)c3cccc4cccc(c34)C2=O)CC1 (stereo not drawn)
2. O=C1c2cccc3cccc(c23)C(=O)N1CC1CCN(CC(O)COc2cccc3[nH]ccc23)CC1 (stereo not drawn)
3. OC(COc1cccc2[nH]c3ccccc3c12)CN1CCC(Cc2ccccc2)CC1 (stereo not drawn)

Out:
6.53
7.57
7.85
